System: Mycobacterium tuberculosis
runDescription: Antibacterial activity against multidrug-resistant Mycobacterium tuberculosis H37Rv carrying luxAB at 128 uM incubated for 10 days under low oxygen followed by 28 hrs normoxic recovery by low-oxygen-recovery assay relative to control
Format: functional
Measured inhibition at 128 µM accompanies every entry in the list below.
reportedProperty: inhibition at 128 µM (%)

In [3]: df
Out[3]:
                            molecularstring  displayunit  measurement
0      COc1ccc(Cn2cnc3c(-c4ccco4)ncnc32)cc1            %           88
1      COc1ccc(Cn2ncc3c(-c4ccco4)ncnc32)cc1            %           60
2  COc1ccc(Cn2ccc3c(-c4ccco4)nc(Cl)nc32)cc1            %           88
3      COc1ccc(Cn2ccc3c(-c4ccco4)ncnc32)cc1            %           82
4      COc1ccc(Cn2nnc3c(-c4ccco4)ncnc32)cc1            %           61
5  COc1ccc(Cn2cnc3c(-c4ccco4)nc(Cl)nc32)cc1            %           82

---

Test system: Mycobacterium tuberculosis
runDescription: Antibacterial activity against clofazimine-resistant Mycobacterium tuberculosis after 7 days by microplate alamar blue assay
Assay type: functional
statedConditions: 168 h
So basically: is MIC under 0.2 µM? Then T. Not under? Then F.

molecularString	classification
COc1ccc(Cn2ccc3c(-c4ccco4)nc(Cl)nc32)cc1	T
COc1ccc(Cn2ccc3c(-c4cccs4)nc(Cl)nc32)cc1	T
CN[C@@H]1[C@H](O[C@H]2[C@H](O[C@H]3[C@H](O)[C@@H](O)[C@H](N=C(N)N)[C@@H](O)[C@@H]3N=C(N)N)O[C@@H](C)[C@]2(O)C=O)O[C@@H](CO)[C@H](O)[C@H]1O	F
COc1ccc(Cn2ccc3c(-c4cccs4)ncnc32)cc1	T
O=[N+]([O-])c1cn2c(n1)OC[C@@H](OCc1ccc(OC(F)(F)F)cc1)C2	F
CO[C@H]1/C=C/O[C@@]2(C)Oc3c(C)c(O)c4c(O)c(c(/C=N/N5CCN(C)CC5)c(O)c4c3C2=O)NC(=O)/C(C)=C\C=C\[C@H](C)[C@H](O)[C@@H](C)[C@@H](O)[C@@H](C)[C@H](OC(C)=O)[C@@H]1C	T
COc1ccc(Cn2ccc3c(-c4ccco4)ncnc32)cc1	T
COc1ccc(Cn2cnc3c(-c4ccco4)nc(Cl)nc32)cc1	F
COc1ccc(Cn2ccc3c(-c4ccco4)nc(OC)nc32)cc1	T

---

# key: entry, value: MIC
System: Mycobacterium tuberculosis
runDescription: Antibacterial activity against streptomycin-resistant Mycobacterium tuberculosis after 7 days by microplate alamar blue assay
Type: functional
statedConditions: 168 h

molecularString	testSystem	MIC
CN[C@@H]1[C@H](O[C@H]2[C@H](O[C@H]3[C@H](O)[C@@H](O)[C@H](N=C(N)N)[C@@H](O)[C@@H]3N=C(N)N)O[C@@H](C)[C@]2(O)C=O)O[C@@H](CO)[C@H](O)[C@H]1O	Mycobacterium tuberculosis	> 16 µM
COc1ccc(Cn2cnc3c(-c4ccco4)nc(Cl)nc32)cc1	Mycobacterium tuberculosis	0.56 µM
COc1ccc(Cn2ccc3c(-c4ccco4)nc(OC)nc32)cc1	Mycobacterium tuberculosis	0.09 µM
CO[C@H]1/C=C/O[C@@]2(C)Oc3c(C)c(O)c4c(O)c(c(/C=N/N5CCN(C)CC5)c(O)c4c3C2=O)NC(=O)/C(C)=C\C=C\[C@H](C)[C@H](O)[C@@H](C)[C@@H](O)[C@@H](C)[C@H](OC(C)=O)[C@@H]1C	Mycobacterium tuberculosis	0.04 µM
NNC(=O)c1ccncc1	Mycobacterium tuberculosis	0.24 µM
COc1ccc(Cn2ccc3c(-c4cccs4)ncnc32)cc1	Mycobacterium tuberculosis	0.26 µM
COc1ccc(Cn2ccc3c(-c4cccs4)nc(Cl)nc32)cc1	Mycobacterium tuberculosis	0.06 µM
COc1ccc(Cn2ccc3c(-c4ccco4)ncnc32)cc1	Mycobacterium tuberculosis	0.18 µM
O=[N+]([O-])c1cn2c(n1)OC[C@@H](OCc1ccc(OC(F)(F)F)cc1)C2	Mycobacterium tuberculosis	0.1 µM
COc1ccc(Cn2ccc3c(-c4ccco4)nc(Cl)nc32)cc1	Mycobacterium tuberculosis	0.08 µM
